Cited source for all entries: the nanobody polyreactivity screen of Harvey et al. (2022)

test-protocol: yeast display, Sf9 membrane polyspecificity reagent, FACS + sequencing; frameworks hold sequencing errors
measured-endpoint: polyreactivity (PSR sort gate)

Guide cases for polyreactivity (PSR sort gate), answers given:
QDQLVEACGGLVQAGGSLRLSCASSRSIIRGYAMGWYIQAHGKERELVAVIRRTSVSTYYADSVKGRFTISRDNAKNTVYLQMKCLKPEDTAVYYCNTLRLSSYPYYGYLGQGTQVTVSS; high polyreactivity
QVQLVESGGGLVQAGGSLRLSCAASGSTFWVYTMGWYRQAPGKERELVAAITLNGGSTYYADSVKGRFTISRDNAKNTVYLQMNSLKPEDTAVYYCAAYVFPFDKSYHYVGYDYWGQGTQVTVSS; low polyreactivity
QVQLVESGGGLVQAGGSLRISCAASGRNLSVYAMGWYRPAPGKERELVATITGRGGGTYYADSVKGRFTISRDNAKNTVYLQMNRLKPEDTAVYYCAADLVDFWYQITTHYDYWGQGTEVTVSS; low polyreactivity
QVQLVESGGGLVQAGGSLRLSCAASGSIFGHNTMGWYRQAPVKERELVAAISSGSRTNSADTVKGRFTISRDNAKNTVYLQMKSLKPEDTAVDYCATKVYSSRYRGYGYWGQGPQVTVSS; high polyreactivity

Could you now look at the following sequence, please?
Summary for this sequence, QVQLVESGGGLVQAGGSLRLSCAASGSTFRVYAMGWYRQAPGKERELVAAISWSGGRTYYADSVKGRFTISRDNAKNTVYLQMNSLKPEDTAVYYCAKPGYLRPSRYDYWGQGTQVTVSS : polyreactivity (PSR sort gate) is high polyreactivity

---

test-protocol: yeast display, Sf9 membrane polyspecificity reagent, FACS + sequencing; frameworks hold sequencing errors
measured-endpoint: polyreactivity (PSR sort gate)

QVQLVESGGGLVQAGGSLRLSCASSGRTFLVNAMGSYRPAPGKERELVAAISQSGGSTYYADSVKGRFTISRDNAKNTVYLQMNCLKPVDTEVYYCAAELINDYYWGQGTQVSVSS; low polyreactivity
QVQLVESGGGLVKAGGSLRISCAASGFILGQYAMGWYRQAPGKERELVAAISRSSSTTYADSVKGRFTISRDKAKNTVYLQMNSLNPEDTAVYYCAAYYWYVTYFRREIAYEYWGQGTQVTVSS; low polyreactivity

---

test-protocol: yeast display, Sf9 membrane polyspecificity reagent, FACS + sequencing; frameworks hold sequencing errors
measured-endpoint: polyreactivity (PSR sort gate)

Known results for sequences:
QVQLVESGGGLVQAGGSLRLSCAASGSIFTAYTMGWYRQAPGKERELVAVISDSSGRTYYADSVKGRFTISRDNAKNTVYLQMNSLKPEVTAVYYCAAEYSDIYEYWGQGTQVTVSS; low polyreactivity
QVQLVESGGGLVQAGGSLRLSCAASGYIFRYYVMGWYRQEPGKERELVAAITFSGGNTYYADSVKGRFTISRDNAKITVYLQMNSLKPEDTAVYYCAADVLYVGGSDYDYWVQGTQVTVSS; low polyreactivity
QVQLVESGGGLVQAGGSLRLSCAASGIIFPYNTMGWYRQAPGKERELVASIDDGGSTNYADSVKGRFTISRDNAKNTVYLQMNSLKPEDTAVYYCNADLFFIYVRQPGYDYWGQGTQVTVSS; low polyreactivity
QVQLVESGGGLVEAGGSLRLSCAASGRIFTYYAMGWYRQAPGKERELVASISRSGGNTYYADSVKGRFTISRDNAKNTVYLQMNSLKPEDTAVYYCDAVYSRLDYWGQGTQVTVSS; high polyreactivity
EVQLEESGGGLVQAGGSLRLSCAASGSTFYQYALGWSRQAPGKERELVAAITTIGGRTYYADSVKGRFTISRDNAKNTVYLQMNSLNPEDTAVYYCAAGYRAWEPYGHYGYWGQGTQVTVSS; high polyreactivity
QVQLVESGGGLVQAGGSLRLSCAASGIIFKYYARGWYRQAPGKERELVAGITSGGSTYYADSVKGRFTISRDNAKNTVYLQMNSLKPEDTAVYYCATRVRDGSQPQYRRRHSYDYWGQGTQVTVSS; high polyreactivity
QVQLVESGGGLVQAGGSLRLSCAASGSTFGANAMGGYRQAPGKERELVATISSGGRTYYADSVKGRFTISRDNAKNTVYLQMNSLKPEDTAVYYCNAGADYTYVYISVYVLYDYWGQGTQVTVSS; low polyreactivity
QVQLVESGRGLVQAGGSLRLSCASSGRIFARNAMGWYRKAPGQEREFVAAITFSGGSTYYAESVKGRFTISRDNAKNTVYLQMNSLKPEDTAVYYCAARSFDDWGQGTQVTVSS; high polyreactivity

response.value for QVQLVESGGGLVQAGGSLRLSCAASGLIFYGNAMGWYRQAPWKERELVAAITGGGGNTYYADSVKGRFTISRDNAKITFFLQMISLKPEDTAVYYCASASSTAYVRYYYWGQGTQVTVSS (field: polyreactivity (PSR sort gate)) = high polyreactivity

GET /value?item= QVQLVESGGGLVQAGGSLRLSCAASGRIFVGYAMGWYRQAPGKEREFVAAITIGGTDTYYADSVKGRFTISRDNAKNTVYLQMNSLKPEDTAVYYCNADLLYPYDFDYWGQGTQVTVSS &field=polyreactivity (PSR sort gate) returns low polyreactivity

Sure, the documented polyreactivity (PSR sort gate) for QVQLVESGGRLVQAGGSLRLSCPASGSTFGVYAMGWYRPEPGKEREFVAAINYSGRTYYADSVKGLFTISRDNAKITVYLQMNSLKPEDTAVYYCNADFFYRYYGAYDYWGQGNQVTVSS is high polyreactivity

Value of measured polyreactivity (PSR sort gate) for the entry QVQLVESGGGLVQAGGSRRLSCAASGIIFYPNAMGWYRQAPGKERELVAAITSDGSTYYADSVKGRFTISRDNAKNTVYLQMNSLKPEDTAVYYCAAWDDYGYDYWGQGTQVTVSS : low polyreactivity

// sample QVQLVESGGGLVQAGGSLRLSCAASGSIFDVNAMGRYRQAPGKERELVAAISDSGGSTYYADSVKGRFTISRDNAKNTVYLQMNSLKPEDTAVYYCNADWSWYNYYDFDYWGQGTQVTVSS , its polyreactivity (PSR sort gate) was low polyreactivity

GET /value?item= QVQHVESGGGVVQAGGSLRLSCAASGIIFPRNALGWYRQAPGKERELVAAIRSSGGTTYYADSVKGRFTISRDNAKNTVYLQMNSLKPEDTAVFYCAAVTTSKFNYWGQGTQVTVSS &field=polyreactivity (PSR sort gate) returns low polyreactivity

For this sequence ( QVQLVESGGGLVQAGGSLRLICAASGRTFDHNAMGWYRQAPGKERELVAAITWSGGITDYADSVKRPFTISRDNAKNTVYLQMNSLKPEDTAVWGQGTQVTVSS ), measured polyreactivity (PSR sort gate) is low polyreactivity

Input QDQLVESGGGLVQAGGSLRLSCAASGRIFCSYAMGWYRQAPGKERELVAAISRRGGGTYYADSVKGRFTISRENAKNTVYLQMNSLKPEDTAFYYCAKDWYGRYYYWGQGTQVTVSS . Output polyreactivity (PSR sort gate): high polyreactivity
